Tested on: CP250
Test: qHTS profiling for inhibitors of Plasmodium falciparum proliferation (AID 504749); further: nearly all actives have a fitted effect of over 60% in size
Conditions: P. falciparum in erythrocytes, SYBR Green DNA, 72 h; series mostly up to 28.7 µM
Inconclusive results are not listed. Calls of active or inactive are those of the source. The call rests on the fitted dose curve; in most records, active means well fitted inhibition curve with a large enough effect; inconclusive means small, poorly fitted or top-dose-only effect; inactive means flat fitted curve, though single readings scatter.
Parameter call: string, one of active, inactive

- molecule: "Nc1nnc(-c2cccc(Cl)c2Cl)c(N)n1"
  measured on: "CP250"
  label class: "inactive"

Prompt: Hi, do you know how COc1ccccc1OCC(O)CN1CCN(CC(=O)Nc2c(C)cccc2C)CC1 (configuration not stated) came out in this test?
Response: inactive

Prompt: Try this molecule next: `CN(C)c1nc(N(C)C)nc(N(C)C)n1`
Response: inactive

Prompt: Try this molecule next: Clc1ccc(C(c2ccccc2Cl)C(Cl)Cl)cc1 (configuration not stated)
Response: inactive

Prompt: Try this molecule next: `OCCN1CCN(CCCN2c3ccccc3Sc3ccc(C(F)(F)F)cc32)CC1`
Response: active

Prompt: Try this molecule next: `CS(=O)(=O)CCNCc1ccc(-c2ccc3ncnc(Nc4ccc(OCc5cccc(F)c5)c(Cl)c4)c3c2)o1`
Response: inactive

Prompt: Try this molecule next: `Clc1ccc2nsnc2c1NC1=NCCN1`
Response: inactive

Prompt: Try this molecule next: `Nc1c2c(nc3ccccc13)CCCC2`
Response: inactive

Prompt: Try this molecule next: `NCCCCCC(=O)O`
Response: inactive
